system: Human immunodeficiency virus 1; test: Binding affinity to HIV1 Gag protein assessed as change in melting temperature using SYPRO orange by differential scanning fluorimetry analysis
measure_name: ΔTm (°C)
Just the number in °C, nothing appended.

Would you mind telling me what ΔTm value was observed for O=C1NC(=S)S/C1=C\c1cc([N+](=O)[O-])ccc1Sc1ccc(C(F)(F)F)cn1 ?
2.4

Same thing, different molecule: CCOc1ccc(/C=C(\C)[N+](=O)[O-])cc1OC
2.2

Same thing, different molecule: O=C1ON=C(c2ccccc2)/C1=C/c1ccc2c(c1)OCO2
6.3

Same thing, different molecule: C/C(=C\c1ccc2c(c1)OCO2)[N+](=O)[O-]
3.4

Same thing, different molecule: COc1cccc(/C=C2\SC(=S)C(N)C2=O)c1OC (stereo not given)
4.8

Values compiled from ChEMBL document CHEMBL2176879.
